- assay.info: yeast display, Sf9 membrane polyspecificity reagent, FACS + sequencing; frameworks hold sequencing errors
measured.quantity: polyreactivity (PSR sort gate)

Here are 5 sequences together with their reported answers.
[[record]]
sequence_data = "QVQLVESGGGLVQAGGSLRLSCAASGIIFDYYAMGLYRHAPGKEMELVASISWSGGGTYYADSVKGRFTISRDNAKNTVYLQMNSLKPEDTAVYYCNAGDHFVHWPHVKHKKFDYWGQGTQVTVSS"
readout_value = "low polyreactivity"

[[record]]
sequence_data = "QVQLVESGGGLVQAGGSLRLSCAASGSTFYYNTMGWYRQAPGKERELVAAITSGDTTYYADSVKGRFTISRDNAKNTVYLQMNSLKPEDTAVYYCAAAWPYARYDYWGQGTQVTVSS"
readout_value = "low polyreactivity"

[[record]]
sequence_data = "QVQRVESGGDLVQAGGSLRLSCAASGFIYTYYAMGWYRLAPGKERDFVATINWSDGSTRYADSVKGRFTISRDNAKNTVYLQMNSLKPEDTAVYYCAKDWFNRPSGEMDYCGQGTQVTVSS"
readout_value = "low polyreactivity"

[[record]]
sequence_data = "QVQLVESGGGLVQAGGSLRLSCAASGSIFDTYAMGCYRPAPGKERELVAAICWSDTSTYADSVKGRFTISRDNAKNTVYLQMNSMKTEDTAVSYCAADFYYYSYYEYVYWGQGTLVTVSS"
readout_value = "low polyreactivity"

[[record]]
sequence_data = "QVQLQVSGGGLVQAGGNLRLSCAASGTISDSVGMGWYRQAPGKEREFVAGITLGGITNYADSVRGRFTISRDNGKNLYLQMKSLKPEETAVYYCAVDDYRYINYEFWGQGTQVTVSS"
readout_value = "high polyreactivity"


Entry "QVQLVESGGGLVQAGGSLRLSCAASGFTFVYYAMGWYRQAPGKERELVAAIRSGGSTNYADSVKGRFTISRDNAKNTVYLQMNSLKPEDTAVYYCAAAYWKGRLVRYYYWGQGTQVTVSS" — recorded polyreactivity (PSR sort gate) = high polyreactivity

Entry "QVQLVESGGGLVQAGGSLRLSCAASGGTFGQYAMGWYRLAPGKERELVAAITSSGGRTYYADSVKGRFTISRDNAKNTVYLQMNSLKPEDTAVYYCAADVQSRYVGEGDYWGQGTQVTVSS" — recorded polyreactivity (PSR sort gate) = high polyreactivity

Entry "QVQLVESGGGLVQAGGSLRLSCAASGRTSVWYTMGWYRQAPGKEREFVASITGSGTCYADSVKGRFTISRDNAKNTVYLQMNSLKPEDTAVYYCAAGGKYYTFGFRGGTYDYWGQGTQVTVSS" — recorded polyreactivity (PSR sort gate) = high polyreactivity

Entry "QVHLVESGGGLVQAGGSLRLSCAASGRTFRRYAMGWYRQAPGKERELVAGISRSGVSTYYADSVKGRFTISRDNAKNTVYLQMNSLKPEDTAVYYCATRYVPTLRSSGDYCGQGTQVTVSS" — recorded polyreactivity (PSR sort gate) = high polyreactivity

Entry "QVQLVESGGGLVQAGGSLRLSCAASGFTLIDYAMGWYRQAPGKERELVAAISGSGGRTYYADSVKGRFTISRDNAKNTVYLQMNSLKPEDTAVYYCAAGRRHVYKRRRYDYCGQGTQVTVSS" — recorded polyreactivity (PSR sort gate) = high polyreactivity

Entry "QVQLVESGGGLVQAGGSLRLSCAASGSTFGRYAMGWSRQAPGKERELVAAITTSGRRTRYADSVKGRFTISRDNAKNTVYLQMNSLKPEDTAVYYCAASGAQGPDYDYWGQGTQVTVSS" — recorded polyreactivity (PSR sort gate) = low polyreactivity
